- Assay protocol: osmotic lysis modulators in infected erythrocytes, primary screen, PSAC antagonist project, cell-based, P. falciparum Indochina, OD700, 3 h (AID 1156)
- Condition description: higher = more signal, called active from +8 up or from −8 down
Mark rule not met for z-score values under 0.8, and rule met for everything at or above.

Compound	Category
CC(C)C(O)C1C=CC2C(=O)N(c3ccccc3)C(=O)C2N1Nc1ccc(C#N)cc1 (stereo not drawn)	rule met
COc1cc2c(cc1O)C(C)N(Cc1cccc(OC(F)(F)F)c1)CC2 (stereo not drawn)	rule met
Cc1ccccc1C(O)C1C=CC2C(=O)N(C)C(=O)C2N1N1CCCCC1 (stereo not drawn)	rule not met
O=C1OCCC=C[C@H]2OC34C=CCN(c5ccc6ccccc6c5)C(=O)[C@H]3N(CCCCCO)C(=O)[C@@H]4C12 (stereo partly drawn)	rule met
CN(C)CCCCNC(=O)[C@H]1C[C@H]2C(=O)N[C@@H](Cc3ccccc3)C(=O)N2[C@H]1c1ccc(O)cc1	rule not met
CC(C)NC(=O)[C@@H]1c2ccccc2C(=O)N(Cc2ccccc2)[C@H]1c1ccc(CO)cc1	rule met
Cc1c(NC(=O)CC#N)c(=O)n(-c2ccccc2)n1C	rule not met

Then there is this compound:
Quick check: does `COCCOC(=O)N1C(=O)[C@@]2(c3cc(C#CC4=CCCCC4)ccc31)[C@H](C(=O)N1CCc3cc(OC)c(OC)cc3C1)[C@H]1C(=O)O[C@H](c3ccccc3)[C@H](c3ccccc3)N1[C@@H]2c1ccccc1OCCO` have z-score greater than or equal to 0.8?
rule met

* * *

- Assay protocol: small-molecule binders of probe aNOTCH2, primary screen, biochemical, small-molecule microarray, 635/667 nm fluorescence (AID 1121);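 further: score merges feature fluorescence read at 667 nm with its signal to noise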
- Condition description: higher = more signal
Measurement name: composite z-score

Solved cases below.
                                 smiles_str   result
0  C=CC[C@]1(C(=O)N2CCOCC2)N=C(c2ccc(OCCCO)cc2)O[C@H]1c1ccccc1  -0.0906
1                    O=c1cccc(CCc2ccccc2)o1  -0.0986
2      Cc1c(NC(=O)CC#N)c(=O)n(-c2ccccc2)n1C   -0.193

Required: composite z-score, one value per compound below.
1. COc1ccc(CCN2C(=O)[C@@]3(Cc4ccccc42)c2ccccc2C(=O)N(Cc2ccccc2Cl)[C@H]3c2ccc(CO)cc2)cc1
2. O=C1C=CC(=O)[C@@H]2CC(COc3ccccc3)=C3[C@@H](CCc4ccccc4)OB(O)C[C@@H]3[C@H]12

1. -0.137
2. -0.219

* * *

- Target or system: NADPH oxidase 5 (Homo sapiens) (UniProt Q96PH1)
- Sequence (Q96PH1 whole entry, looked up): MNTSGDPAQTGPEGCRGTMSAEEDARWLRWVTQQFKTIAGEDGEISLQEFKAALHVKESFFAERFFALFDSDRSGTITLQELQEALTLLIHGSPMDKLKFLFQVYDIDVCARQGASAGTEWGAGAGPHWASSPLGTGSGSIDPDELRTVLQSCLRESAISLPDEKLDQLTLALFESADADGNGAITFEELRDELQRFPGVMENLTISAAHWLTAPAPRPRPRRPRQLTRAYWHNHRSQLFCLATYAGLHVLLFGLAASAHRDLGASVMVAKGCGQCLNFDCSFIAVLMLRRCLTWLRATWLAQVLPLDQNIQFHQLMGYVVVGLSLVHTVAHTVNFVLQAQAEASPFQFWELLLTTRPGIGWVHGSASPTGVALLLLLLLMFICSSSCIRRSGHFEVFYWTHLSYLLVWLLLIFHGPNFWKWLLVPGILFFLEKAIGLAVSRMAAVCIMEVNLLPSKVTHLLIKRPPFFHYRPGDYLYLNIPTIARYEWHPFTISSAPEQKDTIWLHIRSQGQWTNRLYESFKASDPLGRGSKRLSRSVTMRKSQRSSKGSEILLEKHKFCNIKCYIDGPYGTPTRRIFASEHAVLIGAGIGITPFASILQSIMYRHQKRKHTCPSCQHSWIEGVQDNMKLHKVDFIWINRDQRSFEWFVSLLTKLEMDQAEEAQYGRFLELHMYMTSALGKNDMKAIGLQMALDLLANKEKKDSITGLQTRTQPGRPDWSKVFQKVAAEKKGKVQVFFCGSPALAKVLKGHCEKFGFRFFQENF
- Assay protocol: NOX5-dependent H2O2 signal modulators, primary screen, NOX inhibitor project, cell-based, HEK293-NOX5, Amplex Red fluorescence (AID 1161)
- Condition description: HEK293-NOX5, ionomycin, 45 min, higher = more signal
// label = Satisfied if z-score is not less than -0.7, otherwise Not satisfied

The examples below pair each entry with its known result.
Compound	Category
CCOC(=O)[C@H]1C[C@H]2O[C@@]23C[C@H]1C(=O)N1CCCC1[C@@H]3O[Si](C)(C)C(C)(C)C (stereo partly specified)	Not satisfied
CC(C)c1ccc(NN2C(C(O)c3c(F)cccc3Cl)C=CC3C(=O)N(c4ccccc4)C(=O)C32)cc1 (stereo unspecified)	Not satisfied
CCOC(=O)C1=CC[C@@H](c2ccccc2)N(S(=O)(=O)c2ccc(C)cc2)[C@H]1C(=O)OCC	Not satisfied
CC1=C2[C@@H](CCc3ccccc3)OB(O)C[C@@H]2n2c(=O)n(-c3ccccc3)c(=O)n2C1	Not satisfied
Cc1c(NC(=O)CC#N)c(=O)n(-c2ccccc2)n1C	Satisfied

Would you say `COC(=O)[C@@]1(Cc2ccccc2)[C@H]2c3cc(C(=O)N(C)C)n(Cc4c(-c5ccccc5)noc4C)c3C[C@H]2CN1C(=O)c1ccccc1` shows z-score at minimum -0.7?
Satisfied

Decide: is the reported value of z-score for `CCCCC=C[C@@H](NC(=O)c1ccco1)c1ccccc1` equal to or greater than -0.7?
Satisfied

Evaluate `CCCN1C(=O)[C@]2(COC(c3ccc(OCCCO)cc3)=N2)Cc2ccccc21` : z-score at minimum -0.7?
Not satisfied

Could you verify whether the entry `COC(=O)[C@@]1(Cc2ccccc2)N=C(c2ccc(OCCCO)cc2)O[C@H]1c1ccccc1N=[N+]=[N-]` shows z-score of no less than -0.7?
Not satisfied

Has `[N-]=[N+]=Nc1ccccc1[C@H]1OC(c2ccc(OCCCO)cc2)=N[C@@]1(CCS(=O)(=O)c1ccccc1)C(=O)O` a recorded z-score greater than or equal to -0.7?
Not satisfied

Textbook exercise: given the entry C=CCC(OC(C)=O)[C@@H]1[C@@H](N(Cc2cc3ccccc3o2)C(=O)c2ccc(C)cc2)c2cc(OCCCO)ccc2N1C(=O)c1ccc2ccccc2c1 (stereo partly specified) , state whether its z-score is greater than or equal to -0.7.
Satisfied

Threshold query (z-score >= -0.7) on `O=C1C=CC(=O)[C@@H]2CC(COc3ccccc3)=C3[C@@H](CCc4ccccc4)OB(O)C[C@@H]3[C@H]12`
Not satisfied

# check: z-score of COc1ccc(C(O)C2C=CC3C(=O)NC(=O)C3N2Nc2ccccn2)cc1OCc1ccccc1 (stereo unspecified) is greater than or equal to -0.7
Not satisfied

Measured values drawn from PubChem BioAssay for this set.
